Test: CCTE_Shafer_MEA_dev_burst_rate: CCTE's Neural Network Formation Assay for Burst Rate, Shafer Lab (AID 2284042)
Calls of active or inactive are those of the source. Rule for the calls: active = hit-call score of the fitted dose curve at least 0.9, where 1 is the maximum; inactive = score below 0.9.
Please answer using one outcome listed in active, inactive

Reference set, count: 2
# MOLECULE, CLASSIFICATION
measured = [
    ("CO/N=C(/C(=O)OC)c1ccccc1COc1ccccc1C", "active"),
    ("O=S(=O)(c1ccc(O)cc1)c1ccc(O)cc1", "inactive"),
]

Tell me the recorded outcome of this test for `O=C(O)C=CC(F)(C(F)(F)F)C(F)(F)F` .
inactive

Dear all, I need the recorded test outcome for `CC(C)(C)c1ccccc1OP(=O)(Oc1ccccc1)Oc1ccccc1` , thank you.
inactive

Dear all, I need the recorded test outcome for CCCCC(CC)COC(=O)c1c(Br)c(Br)c(Br)c(Br)c1C(=O)OCC(CC)CCCC (configuration not stated) , thank you.
inactive

// param item: `CCOc1ccc(C(C)(C)COCc2cccc(Oc3ccccc3)c2)cc1` ; yields the recorded call
inactive

Called result for O=P1(N(CCCl)CCCl)NCCCO1 (configuration not stated)
inactive

Hi, do you know how `OCC(F)(F)OC(F)(F)C(F)(F)OC(F)(F)CO` came out in this test?
inactive

====

Test: ATG_BRE_CIS: Attagene CIS-FACTORIAL HepG2 Assay for human Bone Morphogenetic Protein (BMP) Response Element (BRE) (AID 2282933)
Details: HepG2 BMP response element reporter, Attagene transcription factor profiling; actives raise or lower the signal
Protocol: ATG_CIS is a cell-based, multiplexed-readout assay that uses HepG2, a human liver cell line, with measurements taken at 24 hours after chemical dosing in a 24-well plate.ATG_BRE_CIS is one of 52 assay component(s) measured or calculated from the ATG_CIS assay. […] This assay endpoint, ATG_BRE_CIS, was analyzed with bidirectional fitting relative to DMSO as the negative control and baseline of activity. […]
Activity calls are given as the source filed them. The calls were made as follows: active = hit-call score of the fitted dose curve at least 0.9, where 1 is the maximum; inactive = score below 0.9.
One label from this list, please: active, inactive

// known answers, use as guide
# MOLECULE, CLASSIFICATION
records = [
    ("O=P(Oc1ccccc1)(Oc1ccccc1)Oc1ccccc1", "active"),
    ("O=C(O)C=CC(F)(C(F)(F)F)C(F)(F)F", "inactive"),
]

Which result was noted for this molecule in the test: `CCOP(=S)(OCC)SCS(=O)(=O)CC`
inactive

Please let me know the test result on file for `COCCOCCO` .
inactive

Per the assay record, what outcome was assigned to O=C(O)C(F)(OC(F)(F)C(F)(F)C(F)(F)F)C(F)(F)F (configuration not stated) ?
inactive

Record request — test call for `CCOc1ccc(C(C)(C)COCc2cccc(Oc3ccccc3)c2)cc1`
inactive

Would you mind telling me which call this test gave OCC1CO1 (configuration not stated) ?
inactive

====

Experiment: BSK_IMphg_SRB.Mphg: Macrophage Viability Assessment in the BioMAP Diversity Plus: IMphg Assay (AID 2284295);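 note: read 24 h after compound dosing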
Conditions: primary human endothelial cells with macrophages
The source made the active and inactive calls. Rule for the calls: active = hit-call score of the fitted dose curve at least 0.9, where 1 is the maximum; inactive = score below 0.9.
QUANTITY_NAME: outcome

# COMPOUND, outcome
data = [
    ("CC(O)C(F)(F)C(F)(F)F (configuration not stated)", "inactive"),
    ("COC(=O)C(F)(F)C(F)(F)OC(F)(C(F)(F)F)C(F)(F)OC(F)=C(F)F (configuration not stated)", "inactive"),
    ("O=C(O)C(F)(F)C(F)(F)C(=O)O", "inactive"),
    ("FC(F)(F)C(F)(C(F)(F)F)C(F)(F)C(F)(F)CC1CO1 (configuration not stated)", "inactive"),
]

I'm hoping you can list outcome for every compound here, please.
1. NC(=O)C(F)(F)C(F)(F)F
2. C=CC(=O)OCC(F)(F)C(F)F
3. O=C(O)C(F)(F)OC(F)(F)C(F)(F)OC(F)(F)C(=O)O

1: inactive; 2: inactive; 3: inactive

====

Read-out: Transforming Growth Factor (TGFB1), TGFB1 (gene 7040)
Experiment: LTEA_HepaRG_TGFB1: Life Technologies and Expression Analysis (LTEA) Assay for Transforming Growth Factor (TGFB1) Transporter using HepaRG (AID 2283533)
Conditions: mRNA level, 48 h; actives raise or lower the signal
Protocol: LTEA_HepaRG is a cell based, multiplexed-readout assay that uses HepaRG, a human liver cell line, with measurements taken at 48 hours after chemical dosing on a 96-well plate.LTEA_HepaRG_TGFB1 is one of 102 assay component(s) measured in the LTEA HepaRG cell culture assay. It is a marker of Cell proliferation, survival, death.Data from the assay component LTEA_HepaRG_TGFB1 was analyzed into 1 endpoint. […]
Active and inactive are the calls of the source. How the source made its calls: active means hit-call score of the fitted dose curve at least 0.9, where 1 is the maximum; inactive means score below 0.9.
QUANTITY_NAME: outcome

Some solved cases for reference:
# COMPOUND, outcome
rows = [
    ("CCCCCCCc1ccc(O)cc1", "inactive"),
    ("Nc1cc2c3c(c1)C(c1ccccc1)=N[C@@H](NC(=O)c1cccnc1)C(=O)N3CC2", "inactive"),
    ("c1ccc2c(c1)Nc1ccccc1S2", "inactive"),
    ("CC(C)(C)c1ccc(O)cc1", "inactive"),
]

Report outcome for every entry below.
1. Cc1ccc(O)cc1C
2. Nc1ccc2ccccc2c1
3. ClC(Cl)c1ccccc1
4. OCC1CO1 (stereo not given)
5. CCOP(=S)(OCC)SCSCC
6. CCOP(=S)(Oc1ccc([N+](=O)[O-])cc1)c1ccccc1 (stereo not given)
7. CCNc1nc(Cl)nc(NC(C)(C)C)n1
8. [N-]=[N+]=[N-]

["inactive", "inactive", "inactive", "inactive", "inactive", "inactive", "inactive", "inactive"]

====

Molecular target: Bile acid receptor (Homo sapiens) (UniProt Q96RI1)
Sequence (Q96RI1 whole entry, looked up): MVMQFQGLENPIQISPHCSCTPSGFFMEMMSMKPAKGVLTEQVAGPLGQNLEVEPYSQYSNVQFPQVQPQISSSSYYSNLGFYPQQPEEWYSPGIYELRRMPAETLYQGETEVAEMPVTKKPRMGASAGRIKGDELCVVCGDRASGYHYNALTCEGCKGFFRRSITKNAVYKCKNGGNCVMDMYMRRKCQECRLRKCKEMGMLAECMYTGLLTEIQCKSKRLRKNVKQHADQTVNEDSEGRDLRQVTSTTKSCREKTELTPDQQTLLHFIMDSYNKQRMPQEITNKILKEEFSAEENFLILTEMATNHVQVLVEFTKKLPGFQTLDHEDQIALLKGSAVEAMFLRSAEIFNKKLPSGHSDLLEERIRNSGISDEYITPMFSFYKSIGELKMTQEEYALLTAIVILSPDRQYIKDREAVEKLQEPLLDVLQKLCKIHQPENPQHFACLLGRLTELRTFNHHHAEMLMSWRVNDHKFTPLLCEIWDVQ
Experiment: ATG_IR1_CIS: Attagene CIS-FACTORIAL HepG2 Assay for human Nuclear Receptor Subfamily 1 Group H Member 4 (NR1H4), IR1 submotif (AID 2282946)
Conditions: IR1 reporter transcription, actives raise or lower the signal
The source made the active and inactive calls. How the source made its calls: active means hit-call score of the fitted dose curve at least 0.9, where 1 is the maximum; inactive means score below 0.9.
Lab note: assign the record to one of yes (1) for active, no (0) for inactive

For orientation, consider the following solved cases.
# COMPOUND, CLASSIFICATION
data = [
    ("O=C(O)C=CC(F)(C(F)(F)F)C(F)(F)F", "no (0)"),
    ("CCOP(=S)(OCC)SCS(=O)(=O)CC", "no (0)"),
    ("N#C/C=C/c1ccccc1", "no (0)"),
]

Short answer needed: outcome of this test for `Nc1ccc(Sc2ccc(N)cc2)cc1` ?
no (0)

What was the test verdict on ClC1=C(Cl)C2(Cl)C3C(Cl)C(Cl)CC3C1(Cl)C2(Cl)Cl (stereo not given) ?
yes (1)

// return assay outcome for `Cc1ccc2c(c1N)C(=O)c1ccccc1C2=O`
no (0)

Could you check what this test reported for `ClC(Cl)=C(c1ccc(Cl)cc1)c1ccccc1Cl` ?
yes (1)

Hey, what did the test say about `CC1=C(C(=O)Nc2ccccc2)S(=O)(=O)CCO1` ?
yes (1)

Could you please tell me the result logged for `O=C(O)C(F)(F)OC(F)(F)C(F)(F)OC(F)(F)F` in this assay?
no (0)

Outcome logged for `O=c1ssc(Cl)c1Cl` in this assay:
yes (1)

Each compound tested received a call. Report the one for `COC(N)=O` .
no (0)

====

Read-out: Interleukin-8 (IL8), CXCL8 (gene 3576)
Assay: BSK_CASM3C_IL8: BioMAP Diversity Plus: CASM3C Assay for Interleukin-8 (IL8) Biomarker Activity (AID 2283042);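 note: IL-8 protein level quantified by ELISA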
Settings: primary human coronary artery smooth muscle cells; actives raise or lower the signal
Activity calls are given as the source filed them. Rule for the calls: active = hit-call score of the fitted dose curve at least 0.9, where 1 is the maximum; inactive = score below 0.9.
The reply should name one outcome from active, inactive

Name the outcome recorded for `Cc1cccc(N)c1` in the assay.
inactive

Dear colleague, could you share the recorded outcome for `CCCCOCCOP(=O)(OCCOCCCC)OCCOCCCC` when you have a moment?
inactive

What classification did CC(Cc1ccc(OCC(=O)O)cc1)NCC(O)c1csc(C(F)(F)F)n1 (centres undefined) end up with in this test?
inactive

Hi, do you know how `CCOP(=S)(OCC)SCn1nnc2ccccc2c1=O` came out in this test?
inactive

Entry O=C(O)C(F)(OC(F)(F)C(F)(F)C(F)(F)F)C(F)(F)F (centres undefined) : call = ?
inactive

Field: outcome | Entry: `Nc1ccc(Cl)cc1`
inactive

Lab log entry: `Cc1c([N+](=O)[O-])cc2c(c1[N+](=O)[O-])C(C)(C)CC2(C)C` — outcome as called in the assay?
inactive

Look up the recorded call for ClC1=C(Cl)C2(Cl)C3C(Cl)C(Cl)CC3C1(Cl)C2(Cl)Cl (centres undefined) in this test.
inactive

====

Read-out: Interferon-gamma inducible Protein 10 (IP10), CXCL10 (gene 3627)
Test: BSK_hDFCGF_IP10: BioMAP Diversity Plus: hDFCGF Assay for Interferon-gamma inducible Protein 10 (IP10) Biomarker Activity (AID 2283053)
Settings: primary human foreskin fibroblasts; actives raise or lower the signal
Activity calls are given as the source filed them. The calls were made as follows: active = hit-call score of the fitted dose curve at least 0.9, where 1 is the maximum; inactive = score below 0.9.
Select the matching outcome among active, inactive

# count of solved cases: 4
# COMPOUND, CLASSIFICATION
data = [
    ("CCOP(=S)(OCC)SCn1nnc2ccccc2c1=O", "inactive"),
    ("CCOP(=S)(OCC)SCSc1ccc(Cl)cc1", "active"),
    ("Nc1cc2c3c(c1)C(c1ccccc1)=N[C@@H](NC(=O)c1cccnc1)C(=O)N3CC2", "inactive"),
    ("Cc1c([N+](=O)[O-])cc2c(c1[N+](=O)[O-])C(C)(C)CC2(C)C", "inactive"),
]

Can you look up the reported call for `O=C(O)C(F)(F)OC(F)(F)C(F)(F)OC(F)(F)C(=O)O` for me?
inactive

Could you check what this test reported for `O=[N+]([O-])c1ccc(Cl)c(Cl)c1` ?
inactive

For `O=C(O)C(F)(F)OC(F)(F)C(F)(F)OC(F)(F)F` , which call appears in the assay record?
inactive

Give the logged outcome of this assay for the following compound: `O=C(O)C(Cl)Cl`
inactive

Please state the recorded outcome for this compound: CCOP(=S)(NC(C)C)Oc1ccccc1C(=O)OC(C)C (centres undefined)
inactive

Source: PubChem BioAssay (EPA / NIEHS)
